Sourced from patent US8686155B2

biological target: AuroraB (Homo sapiens); construct: 20 μL of AuroraB FL His; His; assay: AuroraB Homogeneous Time Resolved Fluorescent (HTRF) kinase assay; assay type: biochemical; settings: numeric values; read-out: AurB_IC50_IP (Avg)
metric: IC50 (nM)
Numeric answer only, unit nM assumed.

## Task I'm curious: which IC50 was measured for Cc1cccc(-c2nnc(Nc3ccc(Oc4ncccc4-c4ccnc(N)n4)cc3)c3ccccc23)n1 tested on AuroraB (Homo sapiens)?
## Result 1

----------
Target: AuroraB (Homo sapiens, UniProt Q96GD4)
Construct: 20 μL of AuroraB FL His; His
Sequence (Q96GD4 whole entry): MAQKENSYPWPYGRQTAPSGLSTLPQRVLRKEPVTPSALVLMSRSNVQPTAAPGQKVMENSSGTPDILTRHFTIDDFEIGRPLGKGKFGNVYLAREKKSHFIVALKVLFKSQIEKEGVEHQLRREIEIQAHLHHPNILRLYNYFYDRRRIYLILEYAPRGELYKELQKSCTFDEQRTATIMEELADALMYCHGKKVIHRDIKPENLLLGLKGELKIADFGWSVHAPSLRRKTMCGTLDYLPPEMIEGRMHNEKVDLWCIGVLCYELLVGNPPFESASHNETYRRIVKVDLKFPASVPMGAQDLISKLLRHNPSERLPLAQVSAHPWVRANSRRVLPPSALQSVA
Assay: AuroraB Homogeneous Time Resolved Fluorescent (HTRF) kinase assay
Type: biochemical
Details: numeric values, unit inferred; read-out: AurB_IC50_IP (Avg)
Method: AuroraB-Homogeneous Time Resolved Fluorescent (HTRF) Kinase Assay: The AuroraB HTRF assay begins with AuroraB in the presence of ATP phosphorylating the biotinylated peptide Histone H3. […] The assay is quenched and stopped with 160 μl, of detection reagent. […] Added to this buffer prior to reading is Steptavidin allophycocyanin (SA-APC) at a final conc in the assay of 0.001 mg/mL, and europilated anti-phosphoHistoneH3 Ab (Eu-anti-His H3) at a final conc of 0.064 nM. […]
pIC50: −log10 of the molar value.
Label F if pIC50 falls below 8; label T in every other case.

[[record]]
compound = "CCCc1cc(-c2ccccc2)nnc1Nc1ccc(Oc2ncccc2-c2ccnc(N)n2)cc1 [compound 445]"
cat = "T"


Moving on to the next compound.
## Task Given the entry COc1ccccc1-c1nnc(Nc2ccc(Oc3ncccc3-c3ccnc(N)c3)cc2)c2ccccc12 [compound 442] , answer whether its pIC50 meets or surpasses 8.
## Result F

----------
target: AuroraB (Homo sapiens, UniProt Q96GD4); construct: 20 μL of AuroraB FL His; His; test: AuroraB Homogeneous Time Resolved Fluorescent (HTRF) kinase assay; type: biochemical; conditions: class symbols; read-out: AurB_IC50_IP (Avg)
Recorded IC50, one value per entry.

Please review the entries below; each comes with its answer.
[[record]]
item_smiles = "O=C(O)CCCNc1nccc(-c2cccnc2Oc2ccc(Nc3nnc(-c4ccccc4)c4ccccc34)cc2)n1"
result = "≤ 100 nM"

[[record]]
item_smiles = "COc1ccccc1-c1nnc(Nc2ccc(Oc3ncccc3-c3ccnc(N)n3)nc2)c2ccccc12"
result = "≤ 100 nM"

[[record]]
item_smiles = "COCc1cccc(-c2nnc(Nc3ccc(Oc4ncccc4-c4ccnc(N)n4)cc3)c3ccccc23)n1"
result = "≤ 100 nM"

[[record]]
item_smiles = "Nc1nccc(-c2cccnc2Oc2ccc(Nc3nnc(-c4ccccc4)c4ccccc34)cn2)n1"
result = "≤ 100 nM"

[[record]]
item_smiles = "COc1ccccc1-c1nnc(Nc2ccc(Oc3ncccc3-c3ccnc(N)n3)cc2)c2ccccc12"
result = "≤ 100 nM"


Continue with the next compound.
## Task What value of IC50 has been reported for the following compound? CCc1cc(-c2ccccc2)nnc1Nc1ccc(Oc2ncccc2-c2ccnc(N)n2)nc1
## Result ≤ 100 nM

----------
Molecular target: AuroraB (Homo sapiens)
Construct: 20 μL of AuroraB FL His; His
Assay: AuroraB Homogeneous Time Resolved Fluorescent (HTRF) kinase assay
Assay type: biochemical
Conditions: class symbols; read-out: AurB_IC50_IP (Avg)
Protocol: AuroraB-Homogeneous Time Resolved Fluorescent (HTRF) Kinase Assay: The AuroraB HTRF assay begins with AuroraB in the presence of ATP phosphorylating the biotinylated peptide Histone H3. […] The assay is quenched and stopped with 160 μl, of detection reagent. […] Added to this buffer prior to reading is Steptavidin allophycocyanin (SA-APC) at a final conc in the assay of 0.001 mg/mL, and europilated anti-phosphoHistoneH3 Ab (Eu-anti-His H3) at a final conc of 0.064 nM. […]
pIC50: −log10 of the molar value.
Examples of molecules with documented pIC50 follow.

[[record]]
molecule = "COc1cccc(-c2nnc(Nc3ccc(Oc4ncccc4-c4ccnc(N)c4)cc3)c3ccccc23)c1 [compound 441]"
result = "6.30 to 7.00"

[[record]]
molecule = "Cc1cc(-c2ccccc2)nnc1Nc1ccc(Oc2ncccc2-c2ccnc(NCCCC(=O)O)n2)cc1 [compound 430]"
result = "≥ 7.00"

[[record]]
molecule = "CCc1cc(-c2ccccc2)nnc1Nc1ccc(Oc2ncccc2-c2ccnc(N)n2)cc1 [compound 435]"
result = "≥ 7.00"

[[record]]
molecule = "N#Cc1cccc(-c2ccncc2)c1Oc1ccc(Nc2nnc(-c3ccccc3)c3ccccc23)cc1 [compound 436]"
result = "≥ 7.00"

[[record]]
molecule = "COCc1cc(-c2ccccc2)nnc1Nc1ccc(Oc2ncccc2-c2ccnc(N)n2)cc1 [compound 446]"
result = "≥ 7.00"


## Task Any idea what pIC50 was measured for Oc1cccc(-c2ccncc2)c1Oc1ccc(Nc2nnc(-c3ccccc3)c3ccccc23)cc1 [compound 447] ?
## Result 5.60 to 6.30

## Task Requested read-out: pIC50. Entry: Cc1csc(-c2cc(C)c(Nc3ccc(Oc4ncccc4-c4ccncc4)cc3)nn2)c1 [compound 428]
## Result ≥ 7.00

## Task Item under review: COc1cccc(-c2nnc(Nc3ccc(Oc4ncccc4-c4ccnc(N)n4)cc3)c3ccccc23)c1 [compound 438] . Reported pIC50?
## Result ≥ 7.00

----------
biological target: AuroraB (Homo sapiens, UniProt Q96GD4); construct: 20 μL of AuroraB FL His; His; test: AuroraB Homogeneous Time Resolved Fluorescent (HTRF) kinase assay; type: biochemical; conditions: numeric values, unit inferred; read-out: AurB_IC50_IP (Avg)
metric: pIC50
Keep in mind that pIC50 stands for -log10 of concentration in molar terms.

[[record]]
item_smiles = "Cc1csc(-c2cc(C)c(Nc3ccc(Oc4ncccc4-c4ccnc(N)c4)cc3)nn2)n1"
assayed_system = "AuroraB (Homo sapiens, UniProt Q96GD4)"
metric = "pIC50"
quantitative_result = 8.02


## Task If you can, please state the reported pIC50 value of CCc1cc(-c2ccccc2)nnc1Nc1ccc(Oc2ncccc2-c2ccnc(N)c2)cc1 .
## Result 8.15

## Task // pIC50 lookup, key: COc1cccc(-c2ccncc2)c1Oc1ccc(Nc2nnc(-c3ccccc3)c3ccccc23)cc1
## Result 8.02

## Task Request the reported pIC50 associated with Cc1csc(-c2nnc(Nc3ccc(Oc4ncccc4-c4ccnc(N)c4)cc3)c3ccccc23)c1
## Result 7.84

----------
Entries and their pIC50 values follow.
biological target: AuroraB (Homo sapiens, UniProt Q96GD4); construct: 20 μL of AuroraB FL His; His; assay: AuroraB Homogeneous Time Resolved Fluorescent (HTRF) kinase assay; assay type: biochemical; conditions: class symbols; read-out: AurB_IC50_IP (Avg)
pIC50: −log10 of the molar value.

The following compounds have reported results that may help.
[[record]]
item_smiles = "Nc1cc(-c2cccnc2Oc2ccc(Nc3nnc(-c4ccccc4)c4ccccc34)cn2)ccn1"
metric = "pIC50"
result = "≥ 7.00"

[[record]]
item_smiles = "CCc1cc(-c2ccccc2)nnc1Nc1ccc(Oc2ncccc2-c2ccnc(N)c2)nc1"
metric = "pIC50"
result = "≥ 7.00"

[[record]]
item_smiles = "Cc1cc(-c2ccccc2)nnc1Nc1ccc(Oc2ncccc2-c2ccnc(NCCCO)n2)cc1"
metric = "pIC50"
result = "≥ 7.00"

[[record]]
item_smiles = "Cc1cc(-c2ccccc2)nnc1Nc1ccc(Oc2ncccc2-c2ccnc(N)c2)cc1"
metric = "pIC50"
result = "≥ 7.00"

[[record]]
item_smiles = "COc1cccc(-c2cc(C)c(Nc3ccc(Oc4ncccc4-c4ccnc(N)n4)cc3)nn2)c1"
metric = "pIC50"
result = "≥ 7.00"

[[record]]
item_smiles = "Cc1csc(-c2cc(C)c(Nc3ccc(Oc4ncccc4-c4ccnc(N)c4)cc3)nn2)c1"
metric = "pIC50"
result = "≥ 7.00"


Consider the record given below.
## Task Any idea what pIC50 was measured for O=c1cc(-c2cccnc2Oc2ccc(Nc3nnc(-c4ccccc4)c4ccccc34)cc2)cc[nH]1 ?
## Result 5.60 to 6.30
